System: Enterococcus faecalis
PROTOCOL_DETAILS: Antimicrobial activity against Enterococcus faecalis after 24 hrs
Format: functional
Below is a list of entries, each paired with its recorded MIC value.

STRUCTURE_STRING: COc1ccc(/C=N/NC(=O)CC[C@@H](C)[C@H]2CC[C@H]3[C@@H]4[C@H](O)C[C@@H]5C[C@H](O)CC[C@]5(C)[C@H]4C[C@H](O)[C@]23C)cc1
MIC / mg/L: 15.6

STRUCTURE_STRING: C[C@H](CCC(=O)N/N=C/c1ccc(Cl)cc1)[C@H]1CC[C@H]2[C@@H]3[C@H](O)C[C@@H]4C[C@H](O)CC[C@]4(C)[C@H]3C[C@H](O)[C@]12C
MIC / mg/L: 1.96

STRUCTURE_STRING: C[C@H](CCC(=O)N/N=C/c1ccccc1Br)[C@H]1CC[C@H]2[C@@H]3[C@H](O)C[C@@H]4C[C@H](O)CC[C@]4(C)[C@H]3C[C@H](O)[C@]12C
MIC / mg/L: 1.96

STRUCTURE_STRING: C=CC1=C(C(=O)O)N2C(=O)[C@@H](NC(=O)/C(=N\OCC(=O)O)c3csc(N)n3)[C@H]2SC1
MIC / mg/L: 31.2

STRUCTURE_STRING: Cc1ccc(/C=N/NC(=O)CC[C@@H](C)[C@H]2CC[C@H]3[C@@H]4[C@H](O)C[C@@H]5C[C@H](O)CC[C@]5(C)[C@H]4C[C@H](O)[C@]23C)cc1
MIC / mg/L: 7.82

STRUCTURE_STRING: C[C@H](CCC(=O)N/N=C/c1cccc(Cl)c1)[C@H]1CC[C@H]2[C@@H]3[C@H](O)C[C@@H]4C[C@H](O)CC[C@]4(C)[C@H]3C[C@H](O)[C@]12C
MIC / mg/L: 1.96

* * *

Tested on: Enterococcus faecalis
PROTOCOL_DETAILS: Antimicrobial activity against Enterococcus faecalis after 24 hrs
Type: functional
MIC by entry:
RECORDED_METRIC: MIC

COMPOUND: C[C@H](CCC(=O)N/N=C/c1ccccc1)[C@H]1CC[C@H]2[C@@H]3[C@H](O)C[C@@H]4C[C@H](O)CC[C@]4(C)[C@H]3C[C@H](O)[C@]12C
MEASURED_VALUE: 15.6 µg/mL
//
COMPOUND: COc1ccc2[nH]cc(/C=N/NC(=O)CC[C@@H](C)[C@H]3CC[C@H]4[C@@H]5[C@H](O)C[C@@H]6C[C@H](O)CC[C@]6(C)[C@H]5C[C@H](O)[C@]34C)c2c1
MEASURED_VALUE: 31.2 µg/mL
//
COMPOUND: C[C@H](CCC(=O)N/N=C/c1ccc(C#N)cc1)[C@H]1CC[C@H]2[C@@H]3[C@H](O)C[C@@H]4C[C@H](O)CC[C@]4(C)[C@H]3C[C@H](O)[C@]12C
MEASURED_VALUE: 15.6 µg/mL
//
COMPOUND: C[C@H](CCC(=O)N/N=C/c1cccs1)[C@H]1CC[C@H]2[C@@H]3[C@H](O)C[C@@H]4C[C@H](O)CC[C@]4(C)[C@H]3C[C@H](O)[C@]12C
MEASURED_VALUE: 31.2 µg/mL
//
COMPOUND: C[C@H](CCC(=O)N/N=C/c1ccccc1O)[C@H]1CC[C@H]2[C@@H]3[C@H](O)C[C@@H]4C[C@H](O)CC[C@]4(C)[C@H]3C[C@H](O)[C@]12C
MEASURED_VALUE: 7.82 µg/mL
//
COMPOUND: C[C@H](CCC(=O)N/N=C/c1ccc([N+](=O)[O-])cc1)[C@H]1CC[C@H]2[C@@H]3[C@H](O)C[C@@H]4C[C@H](O)CC[C@]4(C)[C@H]3C[C@H](O)[C@]12C
MEASURED_VALUE: 7.82 µg/mL
//
COMPOUND: C[C@H](CCC(=O)N/N=C/c1ccc(F)cc1)[C@H]1CC[C@H]2[C@@H]3[C@H](O)C[C@@H]4C[C@H](O)CC[C@]4(C)[C@H]3C[C@H](O)[C@]12C
MEASURED_VALUE: 62.5 µg/mL
//
COMPOUND: C[C@H](CCC(=O)N/N=C/c1ccc(Cl)c([N+](=O)[O-])c1)[C@H]1CC[C@H]2[C@@H]3[C@H](O)C[C@@H]4C[C@H](O)CC[C@]4(C)[C@H]3C[C@H](O)[C@]12C
MEASURED_VALUE: 3.91 µg/mL
//
COMPOUND: N[C@@H](C(=O)N[C@@H]1C(=O)N2C(C(=O)O)=C(Cl)CS[C@H]12)c1ccccc1 [CEFACLOR ANHYDROUS]
MEASURED_VALUE: 31.2 µg/mL
